Assay: Compound was tested for inhibition of tubulin polymerisation
I'd appreciate it if you could supply IC50 values for the items below.

Query block: So what does the record say about IC50 for Nc1ccc(C(=O)N2CCc3cc(S(=O)(=O)N4C[C@H](c5ccccc5)NC4=O)ccc32)cc1 ?
Result block: 1500 nM

Query block: Next compound up: O=C(c1ccncc1)N1CCc2cc(S(=O)(=O)N3C[C@H](c4ccccc4)NC3=O)ccc21
Result block: 10300 nM

Query block: Next record, please: O=C(c1ccco1)N1CCc2cc(S(=O)(=O)N3CC(c4cccs4)NC3=O)ccc21 (centres undefined)
Result block: 4000 nM

Query block: Let us now turn to O=C(Cc1cccs1)N1CCc2cc(S(=O)(=O)N3C[C@H](c4ccccc4)NC3=O)ccc21
Result block: < 1000 nM

Query block: Ok, now O=C(NC1CCCCC1)N1CCc2cc(S(=O)(=O)N3C[C@H](c4ccccc4)NC3=O)ccc21
Result block: 2000 nM

Query block: Same read-out for O=C(c1ccc([N+](=O)[O-])o1)N1CCc2cc(S(=O)(=O)N3C[C@H](c4ccccc4)NC3=O)ccc21 ?
Result block: 40000 nM

Query block: Also CCOC(=O)N1CCc2cc(S(=O)(=O)N3C[C@H](c4ccccc4)NC3=O)ccc21 , if possible.
Result block: 1500 nM

Query block: And then CCOC(=O)Nc1ccc(S(=O)(=O)N2C[C@H](c3ccccc3)NC2=O)cc1C , what is it?
Result block: 6000 nM

Query block: Now the same for O=C(c1cccs1)N1CCc2cc(S(=O)(=O)N3C[C@H](c4ccccc4)NC3=O)ccc21
Result block: 1600 nM

====

Test system: HCT-116
Experiment: Compound was tested for growth inhibition of human colon carcinoma HCT116 cell line
Assay type: functional
endpoint.label: GI50 (nM)
Write down the numeric answer in nM and omit the unit.

Query block: So what does the record say about GI50 for O=C(c1cccs1)N1CCc2cc(S(=O)(=O)N3C[C@H](c4ccccc4)NC3=O)ccc21 ?
Result block: 10

Query block: What do we get for Nc1ccc(C(=O)N2CCc3cc(S(=O)(=O)N4CC(c5cccs5)NC4=O)ccc32)cc1 (stereo not given) ?
Result block: 300

Query block: Next molecule up: CN1CCN(CCOC(=O)N2CCc3cc(S(=O)(=O)N4C[C@H](c5ccccc5)NC4=O)ccc32)CC1
Result block: 1000

Query block: And the next one, O=C(c1ccc([N+](=O)[O-])o1)N1CCc2cc(S(=O)(=O)N3C[C@H](c4ccccc4)NC3=O)ccc21 ?
Result block: 270
